Data provenance is PubChem BioAssay (NCI).

- Test system: MALME-3M melanoma
- Experiment: NCI-60 one-dose screen, 48 h
- Measurement Parameters: 10 µM unless noted
This is part of a sample that, as a whole, favours compounds with a hit. Of some 83,000 tested, about 20% had one in any assay. Active and inactive are the calls of the source. The calls were made as follows: active = growth percent below 10; inactive = the rest.
Labels: active, inactive

[
  {
    "Molecule": "CCOC(=O)c1ccc2c(c1)c1c(C)c3ccncc3c(C)c1n2C",
    "Category Label": "active"
  },
  {
    "Molecule": "CCn1cc(C(=O)N/N=C/c2ccc(Br)cc2)c(=O)c2cc(F)c(N3CCNC(C)C3)c(F)c21 (centres undefined)",
    "Category Label": "inactive"
  },
  {
    "Molecule": "CC[C@H](CC[C@@H](C)[C@H]1CC[C@H]2[C@@H]3CC[C@@H]4CC(=O)/C(=C\\c5ccncc5)C[C@]4(C)[C@H]3CC[C@]12C)C(C)C",
    "Category Label": "inactive"
  },
  {
    "Molecule": "Cc1ccc(C)c(-n2c(-c3ccc(Br)cc3)csc2=NC(=O)c2ccccc2F)c1",
    "Category Label": "inactive"
  }
]
